// data source = patent US6872827B2

- subject of test: Somatostatin sst 3 (Homo sapiens)
- Construct: host or cells: CHO-K1
- Sequence (P32745 whole entry): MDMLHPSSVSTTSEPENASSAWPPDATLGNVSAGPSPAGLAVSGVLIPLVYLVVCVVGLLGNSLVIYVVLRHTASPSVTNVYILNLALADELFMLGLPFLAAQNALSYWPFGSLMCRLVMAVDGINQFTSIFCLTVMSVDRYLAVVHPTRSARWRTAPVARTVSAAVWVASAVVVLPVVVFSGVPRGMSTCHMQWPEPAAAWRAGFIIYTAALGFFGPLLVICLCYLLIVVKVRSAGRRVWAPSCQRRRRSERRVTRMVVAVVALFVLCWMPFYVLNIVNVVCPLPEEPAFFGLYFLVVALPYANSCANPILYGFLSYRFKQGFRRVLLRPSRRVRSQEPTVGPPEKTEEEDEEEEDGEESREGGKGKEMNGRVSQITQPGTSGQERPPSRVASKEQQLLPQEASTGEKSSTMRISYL
- assay protocol: Somatostatin sst3 radioligand binding assay
- stated conditions: Table 4; human
endpoint label: nH

Here is how some compounds turned out for nH.
In [3]: df
Out[3]:
                                   compound  value_measured
0  CN1C(=O)N(CCc2c[nH]c3ccccc23)C(=O)C12CCN(CCCCN)c1cc(Oc3ccc4c(c3)OCO4)ccc12 (stereo not drawn) [J]           0.915
1  CN1C(=O)N(Cc2c[nH]c3ccccc23)C(=O)C12CCN(C(=O)CCCN)c1cc(Oc3ccccc3)ccc12 (stereo not drawn) [Compound A]           0.564
2  Cc1ccc(Oc2ccc3c(c2)N(CCCCN)CCC32C(=O)N(CCc3c[nH]c4ccccc34)C(=O)N2C)cc1C (stereo not drawn) [I]           0.977
3  Cc1ccc(Oc2ccc3c(c2)N(CCCCN)CCC32C(=O)N(CCc3c[nH]c4ccccc34)C(=O)N2C)cc1 (stereo not drawn) [H]           0.922

1: CN1C(=O)N(Cc2c[nH]c3ccccc23)C2(CCN(CCCCN)c3cc(Oc4ccccc4)ccc32)C1=O (stereo not drawn) [Compound B]
2: Cc1ccc(Oc2ccc3c(c2)N(CCCCN)CCC32C(=O)N(C)C(=O)N2Cc2c[nH]c3ccccc23)cc1 (stereo not drawn) [D]
**Q:** Could you determine which record has the numerically smaller nH? Candidates: 1 and 2 State the label of the item chosen.
**A:** 1

====

- subject of test: Somatostatin sst4 (Homo sapiens, UniProt P31391)
- Construct: host or cells: CHO-K1
- Sequence (P31391 whole entry): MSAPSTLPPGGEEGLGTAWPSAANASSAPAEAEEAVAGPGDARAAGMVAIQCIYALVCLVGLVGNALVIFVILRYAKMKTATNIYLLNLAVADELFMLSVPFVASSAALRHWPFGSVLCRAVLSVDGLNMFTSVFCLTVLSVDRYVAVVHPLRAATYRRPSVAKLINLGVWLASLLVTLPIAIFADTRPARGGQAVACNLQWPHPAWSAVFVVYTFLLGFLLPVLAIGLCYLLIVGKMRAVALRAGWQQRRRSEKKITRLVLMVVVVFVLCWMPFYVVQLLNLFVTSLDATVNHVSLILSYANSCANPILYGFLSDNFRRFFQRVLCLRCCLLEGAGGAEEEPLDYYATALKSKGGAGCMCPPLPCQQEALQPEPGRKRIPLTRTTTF
- assay protocol: Somatostatin sst4 radioligand binding assay
- stated conditions: Table 4; human; Conc 10 μM (Conc not given in some rows)
endpoint label: inhibition at 10 µM (%)

Observe how each entry below is paired with its result.
In [3]: df
Out[3]:
                                   molecule  value_measured
0  CN1C(=O)N(Cc2c[nH]c3ccccc23)C(=O)C12CCN(C(=O)CCCN)c1cc(Oc3ccccc3)ccc12 (stereo not drawn) [Compound A]              50
1  Cc1ccc(Oc2ccc3c(c2)N(CCCCN)CCC32C(=O)N(CCc3c[nH]c4ccccc34)C(=O)N2C)cc1C (stereo not drawn) [I]              71
2  CN1C(=O)N(CCc2c[nH]c3ccccc23)C(=O)C12CCN(CCCCN)c1cc(Oc3ccc4c(c3)OCO4)ccc12 (stereo not drawn) [J]              72
3  Cc1ccc(Oc2ccc3c(c2)N(CCCCN)CCC32C(=O)N(CCc3c[nH]c4ccccc34)C(=O)N2C)cc1 (stereo not drawn) [H]              68

P: Cc1ccc(Oc2ccc3c(c2)N(CCCCN)CCC32C(=O)N(C)C(=O)N2Cc2c[nH]c3ccccc23)cc1 (stereo not drawn) [D]
Q: CN1C(=O)N(Cc2c[nH]c3ccccc23)C2(CCN(CCCCN)c3cc(Oc4ccccc4)ccc32)C1=O (stereo not drawn) [Compound B]
**Q:** Please tell me which of the two, P or Q , has the higher reported inhibition at 10 µM value. Pick one and reply with its label.
**A:** P
(P: 68%, Q: 39%)

====

- subject of test: Somatostatin sst1 (Homo sapiens)
- Construct: host or cells: CHO-K1
- Sequence (P30872 whole entry): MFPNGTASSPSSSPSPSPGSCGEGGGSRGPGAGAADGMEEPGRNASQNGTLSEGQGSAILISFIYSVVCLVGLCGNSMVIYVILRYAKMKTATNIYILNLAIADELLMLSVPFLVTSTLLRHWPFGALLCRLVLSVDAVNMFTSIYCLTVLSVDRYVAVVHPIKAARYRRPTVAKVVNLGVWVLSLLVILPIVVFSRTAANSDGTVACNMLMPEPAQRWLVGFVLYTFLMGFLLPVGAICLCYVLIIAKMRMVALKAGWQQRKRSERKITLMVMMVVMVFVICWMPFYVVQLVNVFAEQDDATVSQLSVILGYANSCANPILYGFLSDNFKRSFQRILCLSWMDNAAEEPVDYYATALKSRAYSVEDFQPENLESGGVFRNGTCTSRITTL
- assay protocol: Somatostatin sst1 radioligand binding assay
- stated conditions: Table 4; human
endpoint label: Ki (µM)

Would you please look over these solved cases?
                                   compound  value_measured
0  Cc1ccc(Oc2ccc3c(c2)N(CCCCN)CCC32C(=O)N(C)C(=O)N2Cc2c[nH]c3ccccc23)cc1 (centres unmarked)           0.767
1  CN1C(=O)N(CCc2c[nH]c3ccccc23)C(=O)C12CCN(CCCCN)c1cc(O)ccc12 (centres unmarked)            1.25

I: Cc1ccc(Oc2ccc3c(c2)N(CCCCN)CCC32C(=O)N(CCc3c[nH]c4ccccc34)C(=O)N2C)cc1 (centres unmarked)
II: CN1C(=O)N(CCc2c[nH]c3ccccc23)C(=O)C12CCN(CCCCN)c1cc(Oc3ccc4c(c3)OCO4)ccc12 (centres unmarked)
III: Cc1ccc(Oc2ccc3c(c2)N(CCCCN)CCC32C(=O)N(CCc3c[nH]c4ccccc34)C(=O)N2C)cc1C (centres unmarked)
**Q:** Number of compounds to sort: 3. Sort criterion: Ki, ascending. Use the labels to give the ranking in the order requested.
**A:** II, I, III
(II: 0.664 µM, I: 1.18 µM, III: 3.21 µM)
